The measured values listed here are drawn from the supplement of paper PMC4683952.

- Tested on: Lgr5 (MarsCy1-Lgr5-EGFP, U2OS)
- testMethodNotes: cell-surface Lgr5 expression (SCi1 fluorescence, background-subtracted) relative to WT DMSO (fold of DMSO control); higher = more Lgr5 at the plasma membrane, active = hit call of the paper
- testParameters: U2OS MarsCy1-Lgr5-EGFP stable; treatment time: overnight; 16 µM; library: Johns Hopkins Clinical Compound Library
Counter-ions that a name gives are not always drawn. The campaign covered roughly 1,200 compounds. About 50 (4%) showed activity. Rule as the data show it: all actives reach 1.3 or more but so do some inactives. The entries come from a sample that favours actives as a whole.
Possible outcomes: true (1) = active, false (0) = inactive

{"compound": "COc1ccc2cc(CCC(C)=O)ccc2c1", "assignedCategory": "true (1)"}
{"compound": "O=C([O-])C(=O)[O-].O=C([O-])C(=O)[O-].O=C([O-])C(=O)[O-].[Ce+3].[Ce+3] [Cerium oxalate]", "assignedCategory": "false (0)"}
{"compound": "CC1(C)O[C@@H]2C[C@H]3[C@@H]4CCC5=CC(=O)C=C[C@]5(C)[C@H]4[C@@H](O)C[C@]3(C)[C@]2(C(=O)CO)O1", "assignedCategory": "true (1)"}
{"compound": "C[C@]12C=CC(=O)C=C1CC[C@@H]1[C@@H]2[C@@H](O)C[C@@]2(C)[C@H]1CC[C@]2(O)C(=O)COP(=O)(O)O [Prednisolone sodium phosphate]", "assignedCategory": "false (0)"}
{"compound": "CCCN(CCC)S(=O)(=O)c1ccc(C(=O)O)cc1", "assignedCategory": "false (0)"}
{"compound": "Cc1ccc(/C(=C\\CN2CCCC2)c2cccc(/C=C/C(=O)O)n2)cc1", "assignedCategory": "false (0)"}
{"compound": "Cc1cc(OS(=O)(=O)O)c2ccccc2c1OS(=O)(=O)O [Menadiol disulfate disodium salt trihydrate]", "assignedCategory": "false (0)"}
